B1: Hairpin Ribozyme (parent)
chain: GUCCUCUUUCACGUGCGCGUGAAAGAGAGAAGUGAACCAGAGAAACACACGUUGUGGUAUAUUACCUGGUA

variants of: B1; assay: self-cleavage, relative activity (ratio to wild type); higher = more cleavage; co-transcriptional
Each entry falls in a class defined on self-cleavage; the bands are bucket 1: < 0.1; bucket 2: ≥ 0.1 and < 0.3; bucket 3: ≥ 0.3

INSERT INTO measurements (mutationlabel, assignedcategory) VALUES
  ('U60C G69U', 'bucket 1'),
  ('C16U U58C', 'bucket 3'),
  ('A36U G57U', 'bucket 2'),
  ('C3U A24G', 'bucket 3'),
  ('C18U C46U', 'bucket 2');

Hey, which category is G57A U60A in, do you know?
bucket 2

Hey, which category is C16G G42U in, do you know?
bucket 2

Hey, which category is A36C A41U in, do you know?
bucket 3

Hey, which category is U58A U62A in, do you know?
bucket 1

Hey, which category is U52C U70A in, do you know?
bucket 3

Hey, which category is G32U U67C in, do you know?
bucket 1

Hey, which category is U5A U8A in, do you know?
bucket 2

Origin of values: the RNAGym collection of RNA variant scans (doi:10.7554/elife.80360)
